target: human ether-à-go-go-related gene (hERG) potassium channel (human); experiment: primary screen, population patch clamp on CHO cells stably expressing hERG; higher = less effect of the substance;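 note: peak tail current of the secondary pulse compared with the same well before compound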
Sequence (Q12809 whole entry, looked up): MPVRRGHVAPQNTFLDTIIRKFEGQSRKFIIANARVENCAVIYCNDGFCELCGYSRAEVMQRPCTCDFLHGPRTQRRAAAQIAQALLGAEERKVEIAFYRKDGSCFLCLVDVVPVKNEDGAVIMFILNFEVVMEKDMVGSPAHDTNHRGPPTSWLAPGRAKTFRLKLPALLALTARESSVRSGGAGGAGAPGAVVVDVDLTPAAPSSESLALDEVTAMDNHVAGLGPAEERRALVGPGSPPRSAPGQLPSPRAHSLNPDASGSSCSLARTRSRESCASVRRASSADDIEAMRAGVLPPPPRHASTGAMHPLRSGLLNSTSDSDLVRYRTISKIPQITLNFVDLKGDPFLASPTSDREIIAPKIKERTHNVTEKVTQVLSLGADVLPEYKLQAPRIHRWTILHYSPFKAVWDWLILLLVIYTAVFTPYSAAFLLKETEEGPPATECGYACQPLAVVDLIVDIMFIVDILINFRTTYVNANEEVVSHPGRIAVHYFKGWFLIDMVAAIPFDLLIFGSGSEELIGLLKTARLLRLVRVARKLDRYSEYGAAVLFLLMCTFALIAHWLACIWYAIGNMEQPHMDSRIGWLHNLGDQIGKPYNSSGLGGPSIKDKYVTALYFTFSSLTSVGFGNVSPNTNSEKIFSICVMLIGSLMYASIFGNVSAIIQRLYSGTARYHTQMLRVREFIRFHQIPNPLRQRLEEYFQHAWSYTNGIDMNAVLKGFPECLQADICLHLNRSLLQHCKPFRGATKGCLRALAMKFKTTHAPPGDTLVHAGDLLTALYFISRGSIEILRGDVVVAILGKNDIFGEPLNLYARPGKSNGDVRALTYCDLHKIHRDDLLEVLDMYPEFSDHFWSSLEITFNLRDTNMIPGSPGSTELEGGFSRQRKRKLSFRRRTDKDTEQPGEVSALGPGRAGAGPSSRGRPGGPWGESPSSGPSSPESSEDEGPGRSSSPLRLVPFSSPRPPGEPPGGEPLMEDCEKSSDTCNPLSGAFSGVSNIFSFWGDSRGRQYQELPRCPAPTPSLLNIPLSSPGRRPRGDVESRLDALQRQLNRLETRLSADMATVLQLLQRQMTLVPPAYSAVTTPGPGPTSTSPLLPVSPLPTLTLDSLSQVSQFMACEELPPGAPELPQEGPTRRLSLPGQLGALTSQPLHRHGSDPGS
In all, about 310,000 compounds went through this assay and about 14,000 (4.5%) showed an effect of 50% or more. The effect is printed as a negative number. This excerpt belongs to a sample that is enriched for strong results.
metric: hERG current change (%, negative = inhibition) at 10uM (%)
Please respond with the number in % and leave the unit unwritten.

Here is how some molecules turned out for hERG current change (%, negative = inhibition) at 10uM.
[[record]]
molecule = "CC(C)Cc1cc(CN2CCCC(CO)(Cc3cccc(Cl)c3)C2)[nH]n1 (stereo not shown)"
quantitative_result = -52.5

[[record]]
molecule = "CCOC(=O)C1(Cc2cccc(OC)c2)CCN(Cc2ccc(OC)c(OC)c2)CC1"
quantitative_result = -68.8

[[record]]
molecule = "CC(C)n1cc(CN2CCCC(CO)(Cc3cccc(Cl)c3)C2)cn1 (stereo not shown)"
quantitative_result = -24

[[record]]
molecule = "Cc1cc(CN2CCCC(CO)(Cc3cccc(Cl)c3)C2)n[nH]1 (stereo not shown)"
quantitative_result = -43.2


Recall the recorded hERG current change (%, negative = inhibition) at 10uM for Cc1cccc(C(=O)NN2C(=O)C3C(c4ccccc4)C=CC(c4ccccc4)C3C2=O)c1 (stereo not shown) with human ether-à-go-go-related gene (hERG) potassium channel (human) and state it. 3.83

Proceed to CCOC(=O)C1(Cc2cccc(OC)c2)CCN(Cc2csc(C(C)=O)c2)CC1 -41.1

Proceed to CC(C)=CCN1CCN(Cc2cc(CC(C)C)n[nH]2)CC1CCO (stereo not shown) -9.57

Proceed to CC(C)c1csc(CN2CCC(CO)(Cc3ccccc3)CC2)n1 -9.39

Proceed to CC(C)Cc1cc(CN2CCC(CO)(Cc3cccc(C(F)(F)F)c3)CC2)[nH]n1 -78

Proceed to CCOC(=O)C1(Cc2cccc(OC)c2)CCN(CCO)CC1 -54.3

---

molecular target: human ether-à-go-go-related gene (hERG) potassium channel (human); experiment: primary screen, population patch clamp on CHO cells stably expressing hERG; higher = less effect of the substance;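 note: peak tail current of the secondary pulse compared with the same well before compound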
Screen size: about 310,000 compounds; about 14,000 (4.5%) showed an effect of 50% or more. Effects have a minus sign here. Many of the other results were omitted from the sample, so strong results are more common in it than they were.
Respond with TRUE for hERG current change (%, negative = inhibition) at 10uM values of -40% and above, FALSE for values below.

[[record]]
compound = "O=[N+]([O-])c1ccc(N2CCCCCC2)c([N+](=O)[O-])c1"
study_system = "human ether-à-go-go-related gene (hERG) potassium channel (human)"
group = "TRUE"

[[record]]
compound = "N#Cc1cc([N+](=O)[O-])ccc1N1CCCC1"
study_system = "human ether-à-go-go-related gene (hERG) potassium channel (human)"
group = "TRUE"

[[record]]
compound = "Cc1ccc(C(=O)N2CCCC2)cc1S(=O)(=O)N1CCOCC1"
study_system = "human ether-à-go-go-related gene (hERG) potassium channel (human)"
group = "TRUE"


Quick check, hERG current change (%, negative = inhibition) at 10uM >= -40%? CCCN1CCN(c2ccc(S(N)(=O)=O)cc2[N+](=O)[O-])CC1 TRUE

Proceed to CC1CN(c2ccc([N+](=O)[O-])cc2C#N)CC(C)O1 (stereo not shown) FALSE
